In this section, each of the compounds is paired with its reported GI50.
System: NCI-H460
Assay: NCI tumour cell line growth inhibition, 48 h
Active and inactive are the calls of the source. No stated cut-off is given here; in the data, active = GI50 up to about 1.1 µM and inactive = higher.
TEST READOUT: GI50

COMPOUND	VAL
O=C1C2=C(CCCCC2)C2CCCCC12O (stereo not given)	> 100 µM (inactive)
Cc1ccc(-c2c3c(n(C4OC(CO)C(O)C(O)C4O)c(=S)c2C#N)CC(C)(C)CC3=O)cc1 (stereo not given)	52.2 µM (inactive)
O=C1NC2CCCCC2N=C1CC(=O)c1ccc(Br)cc1 (stereo not given)	3.4 µM (inactive)
O=C(/C=C\Nc1ccccc1O)C(Cl)(Cl)Cl	53.7 µM (inactive)
O=C1c2ccccc2C(=O)N1Cc1ccccc1-c1c2nc(c(-c3ccccc3CN3C(=O)c4ccccc4C3=O)c3ccc([nH]3)c(-c3ccccc3CN3C(=O)c4ccccc4C3=O)c3nc(c(-c4ccccc4CN4C(=O)c5ccccc5C4=O)c4ccc1[nH]4)C=C3)C=C2	> 100 µM (inactive)
N#CCC(=O)N/N=C\C(O)C(O)C(O)C(O)CO (stereo not given)	> 100 µM (inactive)
COc1cc2c3c(n(Cc4ccccc4)c(=O)c2cc1OC)-c1ccccc1C3=O	26.7 µM (inactive)
O=C(O)C1(Cc2ccc3c(c2)CCC3)Cc2ccccc2C1	52.1 µM (inactive)
N#CC1(C=O)c2ccccc2C=CN1C(=O)c1ccccc1 (stereo not given)	73.6 µM (inactive)
COC(=O)c1cc(C)ccc1C1CN=NC12Cc1ccc(C)cc1C2=O (stereo not given)	34.1 µM (inactive)

The reported numbers originate from ChEMBL document CHEMBL1201862.
